# credit: PubChem BioAssay (EPA / NIEHS)

Read-out: Transforming growth factor beta 1 (TGFb1), TGFB1 (gene 7040)
Test: BSK_BE3C_TGFb1: BioMAP Diversity Plus: BE3C Assay for Transforming growth factor beta 1 (TGFb1) Biomarker Activity (AID 2283036)
Condition Description: primary human bronchial epithelial cells; actives raise or lower the signal
Active and inactive are the calls of the source. How the source made its calls: active means hit-call score of the fitted dose curve at least 0.9, where 1 is the maximum; inactive means score below 0.9.
Measured Parameter: AC50

Ask: Given the compound Oc1ccc(O)cc1 , what is its reported AC50?
Result: inactive

Ask: // same read-out, input: O=C(O)c1cccnc1
Result: inactive

Ask: // same read-out, input: CN(C)C(=O)NC1(c2ccccc2)CCN(CCC[C@]2(c3ccc(Cl)c(Cl)c3)CCCN(C(=O)c3ccccc3)C2)CC1
Result: inactive

Ask: // same read-out, input: NC=O
Result: inactive

Ask: // same read-out, input: Cc1cn([C@H]2C=C[C@@H](CO)O2)c(=O)[nH]c1=O
Result: inactive

Ask: // same read-out, input: CCN(CC)CCOc1ccc(C(=C(Cl)c2ccccc2)c2ccccc2)cc1
Result: 16.1 µM (active)

Ask: // same read-out, input: Cc1cc(Cc2ccc(N)c(C)c2)ccc1N
Result: inactive

Ask: // same read-out, input: C=CCc1ccc(OC)c(OC)c1
Result: inactive

Ask: // same read-out, input: S=c1[nH]c2ccccc2s1
Result: inactive

Ask: // same read-out, input: O=C(N[C@@H](c1ccccc1)[C@@H]1CCCCN1)c1cccc(C(F)(F)F)c1Cl
Result: 36.7 µM (active)

---
Ask: Given the compound CC(C)c1cccc(C(C)C)c1NC(=O)NS(=O)(=O)c1cc(C(C)(C)O)co1 , what is its reported AC50?
Result: inactive

Ask: // same read-out, input: CC(=O)S[C@H](C(=O)N[C@H]1Cc2ccccc2[C@H]2CCC[C@@H](C(=O)O)N2C1=O)C(C)C
Result: inactive

Ask: // same read-out, input: Nc1nc(=S)c2[nH]cnc2[nH]1
Result: inactive

Ask: // same read-out, input: CCCCc1nc2cccnc2n1Cc1ccc(-c2ccccc2-c2nnn[nH]2)cc1
Result: inactive

Ask: // same read-out, input: CCCCCCC(CCCCCCCCCCC(=O)OCC(COC(C)=O)OC(C)=O)OC(C)=O (stereo not given)
Result: 7.57 µM (active)

----------
Test: ATG_Oct_MLP_CIS: Attagene CIS-FACTORIAL HepG2 Assay for human Octamer-Binding Transcription Factor (Oct) (AID 2282993)
Condition Description: HepG2 Attagene cis-factorial Oct reporter, mRNA; actives raise or lower the signal
Calls of active or inactive are those of the source. How the source made its calls: active means hit-call score of the fitted dose curve at least 0.9, where 1 is the maximum; inactive means score below 0.9.
Measured Parameter: AC50

Ask: Given the compound CN(C)C(=O)NC1(c2ccccc2)CCN(CC[C@@]2(c3ccc(F)c(F)c3)CN(C(=O)c3ccccc3)CCO2)CC1 , what is its reported AC50?
Result: 100 µM (active)

Ask: // same read-out, input: CCCCc1nc2cccnc2n1Cc1ccc(-c2ccccc2-c2nnn[nH]2)cc1
Result: inactive

Ask: // same read-out, input: C#CC(O)C(CC)CCCC (configuration not stated)
Result: inactive

Ask: // same read-out, input: CC(C)NCC(O)c1ccc(O)c(O)c1 (configuration not stated)
Result: inactive

Ask: // same read-out, input: NC(=Nc1ccccc1)Nc1ccccc1
Result: 43.9 µM (active)

Ask: // same read-out, input: Nc1nc(=S)c2[nH]cnc2[nH]1
Result: 35.5 µM (active)

---
Ask: Given the compound CC(C)c1cccc(C(C)C)c1 , what is its reported AC50?
Result: inactive

----------
Test: BSK_CASM3C_Proliferation: Cell Proliferation Assessment in the BioMAP Diversity Plus: CASM3C Assay (AID 2283047);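 further: sulforhodamine B total protein stain as relative cell number at 560 nm; sub-confluent cells exposed 48 h before staining; fitted both ways against DMSO so gain or loss of cell number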
Condition Description: primary human coronary artery smooth muscle cells
The source made the active and inactive calls. The calls were made as follows: active = hit-call score of the fitted dose curve at least 0.9, where 1 is the maximum; inactive = score below 0.9.
Reply using exactly one outcome from True (active), False (inactive)

Ask: Assay result, entry COC(=O)[C@H]1[C@H]2C[C@@H]3c4[nH]c5cc(OC)ccc5c4CCN3C[C@H]2C[C@@H](OC(=O)c2cc(OC)c(OC)c(OC)c2)[C@@H]1OC — outcome?
Result: True

Ask: // same read-out, input: Cc1ccc(C(C)(C)C)c(O)c1
Result: False

Ask: // same read-out, input: OCC(O)CO
Result: False

Ask: // same read-out, input: CN(C)C(=O)NC1(c2ccccc2)CCN(CCC[C@]2(c3ccc(Cl)c(Cl)c3)CCCN(C(=O)c3ccccc3)C2)CC1
Result: False

Ask: // same read-out, input: O=C(O)c1cccnc1
Result: False

Ask: // same read-out, input: N[C@@H](Cc1c[nH]c2ccccc12)C(=O)O
Result: False

Ask: // same read-out, input: CC(C)(O)c1ccc(CNC(=O)c2cccnc2Oc2ccc(F)cc2)cc1
Result: False

Ask: // same read-out, input: CN(C)CCCN(C)CCCN(C)C
Result: False

----------
Read-out: Cytochrome P450 (CYP2B6), CYP2B6 (gene 1555)
Test: LTEA_HepaRG_CYP2B6: Life Technologies and Expression Analysis (LTEA) Assay for Cytochrome P450 (CYP2B6) using HepaRG (AID 2283481)
Condition Description: mRNA level, 48 h; actives raise or lower the signal
Activity calls are given as the source filed them. How the source made its calls: active means hit-call score of the fitted dose curve at least 0.9, where 1 is the maximum; inactive means score below 0.9.
Reply using exactly one outcome from YES (active), NO (inactive)

Ask: Assay result, entry CCCCCCC(C=O)=Cc1ccccc1 — outcome?
Result: YES

Ask: // same read-out, input: Cc1ccc(-c2cc(C(F)(F)F)nn2-c2ccc(S(N)(=O)=O)cc2)cc1
Result: YES

Ask: // same read-out, input: O=C1NC(=O)C(c2ccccc2)(c2ccccc2)N1
Result: YES

Ask: // same read-out, input: NC=O
Result: NO

Ask: // same read-out, input: CCCCCCCCCCCCCCCCO
Result: YES

----------
Test: BSK_3C_VCAM1: BioMAP Diversity Plus: 3C Assay for Vascular cell adhesion molecule 1 (VCAM1) Biomarker Activity (AID 2282999)
Condition Description: BioMAP 3C HUVEC, VCAM1 ELISA, cytokine-stimulated; actives raise or lower the signal
Calls of active or inactive are those of the source. Rule for the calls: active = hit-call score of the fitted dose curve at least 0.9, where 1 is the maximum; inactive = score below 0.9.
Reply using exactly one outcome from active, inactive

Ask: Assay result, entry CC(C)(C)c1ccccc1 — outcome?
Result: inactive

Ask: // same read-out, input: CN(C)CCCN1c2ccccc2Sc2ccc(Cl)cc21
Result: active

Ask: // same read-out, input: Cc1occc(=O)c1O
Result: inactive

Ask: // same read-out, input: OCC(CO)n1cnc(-c2ccc(F)cc2)c1-c1ccnc(Oc2ccccc2)n1
Result: inactive

Ask: // same read-out, input: CC(COCC(C)OC(=O)c1ccccc1)OC(=O)c1ccccc1 (stereo unspecified)
Result: inactive

Ask: // same read-out, input: C#CC(O)C(CC)CCCC (stereo unspecified)
Result: inactive

Ask: // same read-out, input: COC(=O)CCCC(=O)OC
Result: inactive

Ask: // same read-out, input: O=C1O[C@H]([C@H](O)CO)C(O)=C1O
Result: inactive

Ask: // same read-out, input: CC1(C)C(=O)NC(=O)N1CO
Result: inactive

Ask: // same read-out, input: CC(C)NCC(O)c1ccc(O)c(O)c1 (stereo unspecified)
Result: inactive

Ask: // same read-out, input: Cc1ccc(C(C)(C)C)c(O)c1
Result: active

Ask: // same read-out, input: CCc1nc(N)nc(N)c1-c1ccc(Cl)cc1
Result: inactive

Ask: // same read-out, input: C=CCc1ccc(OC)c(OC)c1
Result: inactive

Ask: // same read-out, input: COc1ccc(OC(F)(F)F)cc1CN[C@H]1CCCN[C@H]1c1ccccc1
Result: inactive

Ask: // same read-out, input: CC(=O)O[C@]1(C(C)=O)CC[C@H]2[C@@H]3C=C(Cl)C4=CC(=O)[C@@H]5C[C@@H]5[C@]4(C)[C@H]3CC[C@@]21C
Result: inactive

Ask: // same read-out, input: CCCCCCCCCCCCCCCCO
Result: inactive

Ask: // same read-out, input: CS(=O)(=O)c1ccc([C@@H](C[C@H]2CCC(=O)C2)C(=O)Nc2cnccn2)cc1Cl
Result: inactive

Ask: // same read-out, input: O=NO
Result: inactive

Ask: // same read-out, input: CC(C)OC(=O)C(C)(C)Oc1ccc(C(=O)c2ccc(Cl)cc2)cc1
Result: inactive

Ask: // same read-out, input: CCCCCCCC(=O)OC
Result: inactive

Ask: // same read-out, input: CCCCC(CC)CO (stereo unspecified)
Result: inactive

----------
Read-out: flavin-containing dimethylaniline monooxygenases 3 (FMO3), FMO3 (gene 2328)
Test: LTEA_HepaRG_FMO3: Life Technologies and Expression Analysis (LTEA) Assay for flavin-containing dimethylaniline monooxygenases 3 (FMO3) using HepaRG (AID 2283453)
Condition Description: mRNA level, 48 h; actives raise or lower the signal
Activity calls are given as the source filed them. Rule for the calls: active = hit-call score of the fitted dose curve at least 0.9, where 1 is the maximum; inactive = score below 0.9.
Reply using exactly one outcome from active, inactive

Ask: Assay result, entry COc1ccc(OC(F)(F)F)cc1CN[C@H]1CCCN[C@H]1c1ccccc1 — outcome?
Result: active

Ask: // same read-out, input: Cc1cc(SC2=C(O)C[C@@](CCc3ccc(N)cc3)(C(C)C)OC2=O)c(C(C)(C)C)cc1CO
Result: inactive

Ask: // same read-out, input: CC(=O)O
Result: inactive

Ask: // same read-out, input: OCC(CO)n1cnc(-c2ccc(F)cc2)c1-c1ccnc(Oc2ccccc2)n1
Result: inactive

Ask: // same read-out, input: CCCCCCCCCCCCCCOS(=O)(=O)O
Result: inactive

Ask: // same read-out, input: Cc1ccc(-c2cc(C(F)(F)F)nn2-c2ccc(S(N)(=O)=O)cc2)cc1
Result: active

Ask: // same read-out, input: Nc1nc(=S)c2[nH]cnc2[nH]1
Result: active

Ask: // same read-out, input: CC(C)c1cccc(C(C)C)c1NC(=O)NS(=O)(=O)c1cc(C(C)(C)O)co1
Result: inactive
